Numbers sourced from PubChem BioAssay (NCI).

assaySummary: NCI Yeast Anticancer Drug Screen. Data for the mgt1 strain (AID 153)
condition: S. cerevisiae mgt1 mutant growth inhibition; at 11.0 µM; stronger effect = higher value
Compounds without any hit were thinned out: in the full panel of roughly 79,000, 15% have a hit.
Quick list: growth inhibition per entry.
Report the figure in % without appending any unit label.

>  <compound>
Cc1cccc(/C=N/NC(=S)N2CCCC2)n1

>  <value>
18

$$$$
>  <compound>
CC(C)(C)N=C(NO)c1ccccc1

>  <value>
2

$$$$
>  <compound>
CC(=O)OCC1OC2OC(=O)NC2C(OC(C)=O)C1OC(C)=O (stereo not drawn)

>  <value>
1

$$$$

Q: Can you share its growth inhibition? I mean this compound: CCCCN(CCCC)CCC(O)c1cc2c(Cl)cc(Cl)cc2c2cc(C(F)(F)F)ccc12 (stereo not drawn)
Ans: 99

Q: Similarly, Nc1ncnc2c1ncn2C1OC(CO)CC1O (stereo not drawn) ?
Ans: 10

Q: Similarly, S=C1SCN(C2CCCCC2)CN1C1CCCCC1 ?
Ans: -2

Q: Similarly, CCC1(OC(=O)CN2CCN(CCO)CC2)C(=O)OCc2c1cc1n(c2=O)Cc2cc3ccccc3nc2-1 (stereo not drawn) ?
Ans: -19

Q: Similarly, c1ccc(-c2cnc3ccccc3c2)cc1 ?
Ans: -6

---

assaySummary: NCI Yeast Anticancer Drug Screen. Data for the sgs1 strain (AID 173);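 note: 0% = growth of vehicle-only control cultures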
condition: S. cerevisiae sgs1 mutant, at 3.7 µM, stronger effect = higher value
About 79,000 compounds went through this panel and 15% of them were active in at least one assay; those are over-represented in the sample as a whole. Active and inactive are the calls of the source. Rule as the data show it: active = growth inhibition above about 70%; inactive = the rest.
Quick list: growth inhibition per entry.

As a guide, the following entries are already answered.
>  <itemSmiles>
NC(=O)c1c([N+](=O)[O-])cc(C(F)(F)F)cc1[N+](=O)[O-]

>  <value>
3% (inactive)

$$$$
>  <itemSmiles>
COC1=C(OC)C(=O)C(Sc2ccc3ccccc3c2)=CC1=O

>  <value>
-17% (inactive)

$$$$
>  <itemSmiles>
NNC(=O)CCc1cc2ccccc2c2ccccc12

>  <value>
-8% (inactive)

$$$$
>  <itemSmiles>
COc1cc(CSc2ccc(O)cc2)cc(O)c1O

>  <value>
-2% (inactive)

$$$$
>  <itemSmiles>
CC(=O)ON=C1C=CC(=C(C#N)c2ccc(Cl)cc2)C=C1

>  <value>
10% (inactive)

$$$$

Shifting focus to the compound that follows.
Q: Can you share its growth inhibition? I mean this compound: CCCCCCOC(=O)NCCOC(=O)Nc1ccccc1
Ans: 2% (inactive)

---

assaySummary: NCI Yeast Anticancer Drug Screen. Data for the bub3 strain (AID 167)
condition: S. cerevisiae bub3 mutant strain, at 3.7 µM, stronger effect = higher value
The panel holds about 79,000 compounds, 15% with a hit somewhere; the sample as a whole holds those more often.
Quick list: growth inhibition per entry.
Report the figure in % without appending any unit label.

Q: Can you share its growth inhibition? I mean this compound: O=C(O)CCCC1CCCc2c1ccc1ccccc21 (stereo not drawn)
Ans: -6

Q: Similarly, CCOC(=O)CC1(C(=O)OCC)c2[nH]c3ccccc3c2CCN1Cc1ccccc1 (stereo not drawn) ?
Ans: -7

Q: Similarly, Cc1cc2c3ccccc3c3ccccc3c2nn1 ?
Ans: -1

Q: Similarly, COc1c(O)c(C=O)c(Br)c(C=O)c1O ?
Ans: -1

Q: Similarly, CC(C)(C)[Si](C)(C)OCC1CCC(n2cnc3c(NC(=O)c4ccccc4)ncnc32)O1 (stereo not drawn) ?
Ans: 0
